Cited source for all entries: patent US20240116985A1

assay: Solubility in PBS; format: physicochemical
Reported Solubility values are given for each entry in this list.

{"columns": ["Compound", "Solubility / µM"],
 "data": [
  ["CC(=O)N1CCC[C@]12CC=CCCCC1(CCCC=CCCCCCC[C@@](C)(C(=O)N[C@@H](Cc3ccsc3)C(=O)N[C@@H](Cc3csc4ccccc34)C(=O)N[C@@H](CCC(N)=O)C(N)=O)NC(=O)[C@H](CCC(N)=O)NC(=O)[C@H](Cc3ccccc3)NC(=O)[C@H](C)NC(=O)[C@H](C)NC(=O)[C@H](CCC(=O)O)NC(=O)[C@H](CC(=O)O)NC1=O)NC(=O)[C@H](C)NC(=O)[C@H](CC(=O)O)NC2=O (some centres unmarked) [I-426]", 33],
  ["CC(=O)N1CCC[C@]12CC=CCCCC1(CCCC=CCCCCCC[C@@](C)(C(=O)N[C@@H](Cc3ccccc3)C(=O)N[C@@H](Cc3csc4ccccc34)C(=O)N[C@@H](CCC(N)=O)C(N)=O)NC(=O)[C@H](CCC(N)=O)NC(=O)[C@H](Cc3ccccc3)NC(=O)[C@H](C)NC(=O)[C@H](C)NC(=O)[C@H](CCC(=O)O)NC(=O)[C@H](CC(=O)O)NC1=O)NC(=O)[C@H](C)NC(=O)[C@H](Cc1nn[nH]n1)NC2=O (some centres unmarked) [I-416]", 44]
]}
